target: human recombinant adrenergic α2B receptor (Homo sapiens, UniProt P18089); construct: expressed in transfected cells; host or cells: CHO-K1; experiment: Radioligand binding, adrenergic α2B ([3H]Rauwolscine); settings: read-out: Ki α2B
Sequence (P18089 whole entry): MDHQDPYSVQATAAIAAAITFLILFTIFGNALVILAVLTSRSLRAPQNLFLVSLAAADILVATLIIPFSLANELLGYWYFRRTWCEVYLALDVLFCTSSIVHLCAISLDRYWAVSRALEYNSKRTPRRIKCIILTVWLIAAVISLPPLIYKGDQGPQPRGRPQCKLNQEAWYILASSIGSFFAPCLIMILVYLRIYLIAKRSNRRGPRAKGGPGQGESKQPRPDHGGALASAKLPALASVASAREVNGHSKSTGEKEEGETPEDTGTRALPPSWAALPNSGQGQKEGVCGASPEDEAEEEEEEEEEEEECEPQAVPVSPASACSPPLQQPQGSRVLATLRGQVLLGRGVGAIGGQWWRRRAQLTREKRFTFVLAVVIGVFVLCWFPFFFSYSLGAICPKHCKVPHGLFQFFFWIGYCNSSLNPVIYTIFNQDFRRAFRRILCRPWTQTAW
PARAMETER MEASURED: pKi
By convention, pKi is the negative base-10 log of a molar concentration.

Lookup: Give recorded pKi. Cc1ccc2c(c1)c1c(n2CC(OC(=O)C(C)(C)C)c2ccncc2)CCN(C)C1 (single isomer, unassigned) [130a]
Found: 8.78

Lookup: Give recorded pKi. Cc1ccc2c(c1)c1c(n2CC(O)c2ccncc2)CN(C)CC1 (single isomer, unassigned)
Found: 7.93

Lookup: Give recorded pKi. Cc1ccc2c(c1)c1c(n2CC(C)(O)c2ccc(F)cc2)CCN2CCCC12 (single isomer, unassigned) [II-121b]
Found: 9.66

Lookup: Give recorded pKi. Cc1cnc2c(c1)c1c(n2CCc2ccc(C(N)=O)nc2)CCN2CCCC12 (stereo not shown)
Found: 8.03

Lookup: Give recorded pKi. Cc1cnc2c(c1)c1c(n2CCc2ccc(C)nc2)CCN2CCCC12 (single isomer, unassigned) [74a]
Found: 8.85

Lookup: Give recorded pKi. Cc1ccc2c(c1)c1c(n2CNc2ccccn2)CCN(C)C1
Found: 7.69

Lookup: Give recorded pKi. Cc1ccc2c(c1)c1c(n2CC(OC(=O)C(C)(C)C)c2ccncc2)CCN(C)C1 (single isomer, unassigned) [130b]
Found: 8.60

Lookup: Give recorded pKi. CC(O)(Cn1c2c(c3cc(Cl)ccc31)CNCC2)c1cccnc1 (single isomer, unassigned) [175a]
Found: 8.35

Lookup: Give recorded pKi. Cc1ccc2c(c1)c1c(n2C(C)C(O)c2ccncc2)CCN(C)C1 (single isomer, unassigned) [127a]
Found: 7.82

Lookup: Give recorded pKi. CN1CCc2c(n(CC(O)c3ccncc3)c3ccc(Cl)cc23)CC1 (single isomer, unassigned) [15b]
Found: 9.19

Lookup: Give recorded pKi. CN1CCc2c(c3ccccc3n2CC(C)(O)c2cccnc2)C1 (single isomer, unassigned) [173a]
Found: 8.06

Lookup: Give recorded pKi. Cc1ccc(C(C)(O)Cn2c3c(c4cc(Cl)ccc42)CN(C)CC3)cn1 (single isomer, unassigned) [93a]
Found: 8.94

Lookup: Give recorded pKi. Cc1ccc2c(c1)c1c(n2CC(O)c2ccncc2)CCN2CCCC12 (single isomer, unassigned) [129d]
Found: 9.46

Lookup: Give recorded pKi. CN1CCc2c(c3cccc(Cl)c3n2CCc2ccccc2)C1
Found: 9.02

Lookup: Give recorded pKi. Cc1ccc2c(c1)c1c(n2CC(O)c2ccncc2)CCN2CCCC12 (single isomer, unassigned) [129c]
Found: 9.11

Lookup: Give recorded pKi. Cc1ccc2c(c1)c1c(n2CC(O)c2ccncc2)CCN(C)C1 (stereo not shown) [compound 3]
Found: 9.19
